Values compiled from the supplement of paper PMC10724198.

# System: Saccharomyces cerevisiae;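 further: PSI is a weighted mean of sequencing reads over stability bins, variants kept only with over 10 reads, mCherry proximal and sfGFP distal, peptide attached via GGGS linker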
# assay-summary: protein stability index of tFT-peptide fusion (C-terminal peptide) (PSI (0-1 scale)); higher = more stable (slower turnover)
# run-conditions: genetic background: wild type; temperature: 30 C
If the reported protein stability index equals or exceeds 0.6, assign t. If not, assign f.

[[record]]
macromolecule_sequence = "PPPLPSSPSPLL"
class_assignment = "t"

[[record]]
macromolecule_sequence = "RRKNIQEKKIKK"
class_assignment = "t"

[[record]]
macromolecule_sequence = "DLRSSDPVAGSL"
class_assignment = "t"

[[record]]
macromolecule_sequence = "LCGAVVEGGGEE"
class_assignment = "f"

[[record]]
macromolecule_sequence = "WGVVAVSGRLGA"
class_assignment = "t"

[[record]]
macromolecule_sequence = "RKNTSRESGLTR"
class_assignment = "t"

[[record]]
macromolecule_sequence = "VFLACSMTGGDA"
class_assignment = "f"

[[record]]
macromolecule_sequence = "VQTYVRARVDRL"
class_assignment = "t"

[[record]]
macromolecule_sequence = "KIEAHKKYKKHQ"
class_assignment = "t"

